system: U251 human glioblastoma cell line; assay: in vitro FM-HCR assay of MGMT activity (mPlum O^6MeG reporter plasmid); format: cell-based; conditions: MGMT activity (a.u.) in O^6BG divided by DMSO x 100; higher values indicate resistance
measurementLabel: Relative MGMT activity (%)
# unit: % | format: bare number

Data request: What value of measured Relative MGMT activity (%) is listed for P140F: MGMT polypeptide with mutation P140F (protein) MDKDCEMKRTTLDSPLGKLELSGCEQGLHEIKLLGKGTSAADAVEVPAPAAVLGGPEPLMQCTAWLNAYFHQPEAIEEFPVPALHHPVFQQESFTRQVLWKLLKVVKFGEVISYQQLAALAGNPKAARAVGGAMRGNPVFILIPCHRVVCSSGAVGNYSGGLAVKEWLLAHEGHRLGKPGLGGSSGLAGAWLKGAGATSGSPPAGRN ?
Data returned: 32.9

Data request: What value of measured Relative MGMT activity (%) is listed for L33F: MGMT polypeptide with mutation L33F (protein) MDKDCEMKRTTLDSPLGKLELSGCEQGLHEIKFLGKGTSAADAVEVPAPAAVLGGPEPLMQCTAWLNAYFHQPEAIEEFPVPALHHPVFQQESFTRQVLWKLLKVVKFGEVISYQQLAALAGNPKAARAVGGAMRGNPVPILIPCHRVVCSSGAVGNYSGGLAVKEWLLAHEGHRLGKPGLGGSSGLAGAWLKGAGATSGSPPAGRN ?
Data returned: 18.6

Data request: If you can, please state the reported Relative MGMT activity (%) value of R135K: MGMT polypeptide with mutation R135K (protein) MDKDCEMKRTTLDSPLGKLELSGCEQGLHEIKLLGKGTSAADAVEVPAPAAVLGGPEPLMQCTAWLNAYFHQPEAIEEFPVPALHHPVFQQESFTRQVLWKLLKVVKFGEVISYQQLAALAGNPKAARAVGGAMKGNPVPILIPCHRVVCSSGAVGNYSGGLAVKEWLLAHEGHRLGKPGLGGSSGLAGAWLKGAGATSGSPPAGRN .
Data returned: 15.8

Data request: For the molecule M134W: MGMT polypeptide with mutation M134W (protein) MDKDCEMKRTTLDSPLGKLELSGCEQGLHEIKLLGKGTSAADAVEVPAPAAVLGGPEPLMQCTAWLNAYFHQPEAIEEFPVPALHHPVFQQESFTRQVLWKLLKVVKFGEVISYQQLAALAGNPKAARAVGGAWRGNPVPILIPCHRVVCSSGAVGNYSGGLAVKEWLLAHEGHRLGKPGLGGSSGLAGAWLKGAGATSGSPPAGRN , what Relative MGMT activity (%) is on record?
Data returned: 92.1

Data request: Relative MGMT activity (%) for Y158F: MGMT polypeptide with mutation Y158F (protein) MDKDCEMKRTTLDSPLGKLELSGCEQGLHEIKLLGKGTSAADAVEVPAPAAVLGGPEPLMQCTAWLNAYFHQPEAIEEFPVPALHHPVFQQESFTRQVLWKLLKVVKFGEVISYQQLAALAGNPKAARAVGGAMRGNPVPILIPCHRVVCSSGAVGNFSGGLAVKEWLLAHEGHRLGKPGLGGSSGLAGAWLKGAGATSGSPPAGRN ?
Data returned: 20.1
